Source: ChEMBL document CHEMBL2311426

# Tested on: Staphylococcus aureus
# Test Method Notes: Antibacterial activity against Staphylococcus aureus MB2865 by turbidity method
# Assay type: functional
# Experimental Context: read-out: MIC100
Result Type: MIC
Param answer (str): number followed by unit.

CO/C(C)=C1/NC(=O)[C@H]([C@@H](C)O)NC(=O)c2csc(n2)-c2cc(O)c(-c3nc(CN(CCO)CCO)cs3)nc2-c2csc(n2)[C@@H]2COC(=O)c3c4c5c(cccc5n3O)COC(=O)[C@@H](O[C@H]3C[C@](C)(O)[C@H](N(C)C)[C@H](C)O3)[C@@H](OC4)[C@H](NC(=O)c3csc1n3)c1nc(cs1)C(=O)N2 : 0.06 µg/mL
C=C(NC(=O)c1csc(-c2nc3c(cc2O)-c2nc(cs2)C(=O)N[C@@H]([C@@H](C)O)C(=O)N/C(=C(\C)OC)c2nc(cs2)C(=O)N[C@@H]2c4nc(cs4)C(=O)N[C@@H](COC(=O)c4c5c6c(cccc6n4O)COC(=O)[C@@H](O[C@H]4C[C@](C)(O)[C@H](N(C)C)[C@H](C)O4)[C@H]2OC5)c2nc-3cs2)n1)C(N)=O : 0.007 µg/mL

We next turn to a different compound, shown below.
MIC in this record for CO/C(C)=C1/NC(=O)[C@H]([C@@H](C)O)NC(=O)c2csc(n2)-c2cc(O)c(-c3nc(CNCC(C)(C)N4CCOCC4)cs3)nc2-c2csc(n2)[C@@H]2COC(=O)c3c4c5c(cccc5n3O)COC(=O)[C@@H](O[C@H]3C[C@](C)(O)[C@H](N(C)C)[C@H](C)O3)[C@@H](OC4)[C@H](NC(=O)c3csc1n3)c1nc(cs1)C(=O)N2 : 0.06 µg/mL
